Measured FACS-Seq fitted mean (log10), listed per entry.
B1: library; a variant is named by its letters at N, in order (parent)
chain: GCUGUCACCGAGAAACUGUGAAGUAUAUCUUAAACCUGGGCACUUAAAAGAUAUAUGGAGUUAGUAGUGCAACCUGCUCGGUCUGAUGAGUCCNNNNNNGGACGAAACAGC

Variants of: B1
assay-method-text: FACS-Seq fitted mean relative fluorescence mCherry/BFP with ligand (log10 relative fluorescence); HEK293T; ligand: cyclic di-GMP (c-di-GMP-II aptamer); ligand concentration (+) FACS-Seq: 1 mM; higher = higher reporter protein expression
conditions: ligand present: yes
Respond numerically, and do not add a unit to the figure.

variant-identifier | FACS-Seq fitted mean (log10)
UAUACU | 0.304
CACCUA | 0.0161
GACUUG | -0.0923
GACAGA | 0.0814
CAAGAA | -0.059
AGAUUA | -0.245
AUUCCC | -0.405
AUGUUA | -0.0703

Ask: Fill blank: measured FACS-Seq fitted mean (log10) of the variant "AUGGUG" is ____.
Result: -0.113

Ask: Continue with "ACCUAA"
Result: 0.102

Ask: Continue with "UCGCCA"
Result: 0.335
